# Target under test: Cyclin-dependent kinase 9 (Homo sapiens) (UniProt P50750)
# Sequence (P50750 whole entry): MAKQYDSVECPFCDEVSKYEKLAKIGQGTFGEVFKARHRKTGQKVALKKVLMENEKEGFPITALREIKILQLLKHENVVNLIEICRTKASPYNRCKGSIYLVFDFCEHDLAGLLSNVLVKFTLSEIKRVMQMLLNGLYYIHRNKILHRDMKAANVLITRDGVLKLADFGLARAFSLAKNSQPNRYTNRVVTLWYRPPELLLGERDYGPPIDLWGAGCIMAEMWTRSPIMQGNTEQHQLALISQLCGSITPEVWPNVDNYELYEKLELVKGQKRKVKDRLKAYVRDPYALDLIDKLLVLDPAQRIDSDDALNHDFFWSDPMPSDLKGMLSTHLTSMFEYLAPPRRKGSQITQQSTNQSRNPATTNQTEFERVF
# Run conditions: dose 10.0 nM
# Description: Inhibition of CDK9 (unknown origin) at 10 nM relative to control
Measured quantity: inhibition (%)
Give your result in % as a bare value.

Molecule: CCn1c(=O)c2cccnc2n(CCCN2CCC(C(=O)Nc3ncc(SCc4ncc(C(C)(C)C)o4)s3)CC2)c1=O
Measure unit: %
Reported value: 27
//
Molecule: CC(C)(C)c1cnc(CSc2cnc(NC(=O)C3CCN(CCCn4c(=O)n(Cc5ccccc5)c(=O)c5cccnc54)CC3)s2)o1
Measure unit: %
Reported value: 19
//
Molecule: CC(C)(C)c1cnc(CSc2cnc(NC(=O)C3CCN(CCCn4c(=O)n(Cc5ccncc5)c(=O)c5cccnc54)CC3)s2)o1
Measure unit: %
Reported value: 30
//
Molecule: CC(C)(C)c1cnc(CSc2cnc(NC(=O)C3CCNCC3)s2)o1 [BMS-387032]
Measure unit: %
Reported value: 22
//
Molecule: CC(C)(C)c1cnc(CSc2cnc(NC(=O)C3CCN(CCCn4c(=O)n(Cc5ccncc5)c(=O)c5ccc(Cl)cc54)CC3)s2)o1
Measure unit: %
Reported value: 13

Now for another entry.
## Task Dear colleague, please send me the reported inhibition for CCn1c(=O)c2ccc(Cl)cc2n(CCCN2CCC(C(=O)Nc3ncc(SCc4ncc(C(C)(C)C)o4)s3)CC2)c1=O when you can.
## Result -2

---

# Target under test: Cyclin-dependent kinase 9 (Homo sapiens) (UniProt P50750)
# Run conditions: dose 100.0 nM
# Description: Inhibition of CDK9 (unknown origin) at 100 nM relative to control
Please use met whenever inhibition is not below 80%, and not met whenever it is.

Molecule: CC(C)(C)c1cnc(CSc2cnc(NC(=O)C3CCN(CCCn4c(=O)n(Cc5ccccc5)c(=O)c5cccnc54)CC3)s2)o1
Cat: met
//
Molecule: CC(C)(C)c1cnc(CSc2cnc(NC(=O)C3CCN(CCCn4c(=O)n(Cc5ccncc5)c(=O)c5cccnc54)CC3)s2)o1
Cat: met

## Task Given CC(C)(C)c1cnc(CSc2cnc(NC(=O)C3CCN(CCCn4c(=O)n(Cc5ccncc5)c(=O)c5ccc(Cl)cc54)CC3)s2)o1 , state whether its inhibition is at least 80%.
## Result met

## Task Check if inhibition >= 80% (inclusive). Item: CCn1c(=O)c2cccnc2n(CCCN2CCC(C(=O)Nc3ncc(SCc4ncc(C(C)(C)C)o4)s3)CC2)c1=O
## Result met

## Task Decide: inhibition of CC(C)(C)c1cnc(CSc2cnc(NC(=O)C3CCNCC3)s2)o1 >= 80%?
## Result met

## Task Threshold query (inhibition >= 80%) on CC(C)(C)c1cnc(CSc2cnc(NC(=O)C3CCN(CC(=O)NCCOCCOCCOCCNc4cccc5c4C(=O)N(C4CCC(=O)NC4=O)C5=O)CC3)s2)o1 (configuration not stated)
## Result not met
